Assay: Single-dose pharmacokinetics in SD rats
Format: in vivo, SD rat
Details: male, SD, rat, plasma, iv, 2 mg/kg
Peptide text beside a SMILES is read from it.
recorded_metric: C0 (ng/mL)
Respond with the bare value in ng/mL.

So, CC(C)[C@@H](NC(=O)[C@H](N)Cc1ccc(O)cc1)C(=O)N[C@H](CC(=O)O)C(=O)N[C@H](CCCCN)C(=O)N[C@H](CCCNC(=N)N)C(=O)O [FC-12738, (D-Tyr)-(D-Val)-(D-Asp)-(D-Lys)-(D-Arg)] (HELM PEPTIDE1{[dY].[dV].[dD].[dK].[dR]}$$$$V2.0) ? Its C0 was 7830
